Values compiled from PubChem BioAssay (NCI).

Tested on: SN12C renal
Assay: NCI-60 one-dose screen, 48 h
Conditions: 10 µM unless noted
Protocol: Growth inhibition of the SN12C human tumor cell line is measured as a screen for anti-cancer activity. Cells are grown in 96 well plates and exposed to the test compound for 48 hours. Compounds are tested at a single concentration, which is 10^-5 M for most compounds. The reported endpoint is percent growth (GI% or GIPRCNT), where numbers from 0 - 100% represent growth inhibition, and numbers from -100% - 0 represent cell death. For example, a value of 40 represents 60% growth inhibition. […]
The panel holds about 83,000 compounds, 20% with a hit somewhere; the sample as a whole holds those more often. Activity calls are given as the source filed them. The calls were made as follows: active = growth percent below 10; inactive = the rest.
Labels: active, inactive

> print(dat)
                                    molecule  category.label
 1   COc1cc(CCNc2cnc3cc(N)cc(N)c3n2)cc(OC)c1        inactive
 2  COC(=O)[C@H](Cc1cn(C)cn1)NC(=O)[C@@H](NC(=O)Nc1cc(C(F)(F)F)cc(C(F)(F)F)c1)C(C)(C)C          active
 3           CCCCCSc1ccc2nc(NC(=O)OCCC)sc2c1        inactive
 4       Nc1ccc(S(=O)(=O)Nc2cc(F)cc(F)c2)cc1        inactive
 5       O=CN/N=C/c1ccc(Cl)c([N+](=O)[O-])c1        inactive
 6  Cc1ncc(C(=O)Nc2ccc(CN3CCN(C)CC3)c(C(F)(F)F)c2)cc1C#Cc1c(N)ncc2ccc(F)cc12        inactive
 7  COc1cc(-c2c3c(cn2CCN2CCCCC2)-c2oncc2CC3)cc(OC)c1OC        inactive
 8               CCOc1ccc2nc3ccc(Cl)cc3nc2c1        inactive
 9                          N#CCCCCCCCCCCC#N        inactive
10            CC(=O)NNC(=O)c1sc(NC(C)=O)nc1C        inactive
11  CCCCCCNc1nc(N2CCOCC2)c2[nH]c(NCCCCCC)nc2n1          active
12  O=C(C(=O)N1CCOCC1)c1ccc(O[C@H]2O[C@H](CO)[C@@H](O)[C@H](O)[C@@H]2O)cc1        inactive
13  CC(=O)CCS(=O)c1ccccc1 (configuration not stated)        inactive
14  COC1NC(Cl)=C(C#N)C(C#N)(C#N)C1(C)C (configuration not stated)        inactive
15                      COC(=O)CC(=O)C(=O)OC        inactive
16  CC1=NN(c2cccc(Cl)c2)C(=O)/C1=C\c1cn(-c2nc(N3CCOCC3)nc(N3CCOCC3)n2)c2ccccc12        inactive
17  COc1cc(NC(C)CCCN)c2nc(C)ccc2c1OC (configuration not stated)        inactive

---

Test system: OVCAR-4 ovarian
Experiment: NCI-60 one-dose screen, 48 h (100 = growth as untreated, 0 = no growth, -100 = all killed)
Settings: 10 µM unless noted
Description: Growth inhibition of the OVCAR-4 human tumor cell line is measured as a screen for anti-cancer activity. Cells are grown in 96 well plates and exposed to the test compound for 48 hours. Compounds are tested at a single concentration, which is 10^-5 M for most compounds. The reported endpoint is percent growth (GI% or GIPRCNT), where numbers from 0 - 100% represent growth inhibition, and numbers from -100% - 0 represent cell death. For example, a value of 40 represents 60% growth inhibition. […]
The panel holds about 83,000 compounds, 20% with a hit somewhere; the sample as a whole holds those more often. Activity calls are given as the source filed them. How the source made its calls: active means growth percent below 10; inactive means the rest.

MOLECULE	TEST_TARGET	growth
COC(=O)c1ccc2[nH]c(O)c(C(=Nc3ccc(N(C)C(=O)CN4CCN(C)CC4)cc3)c3ccc(OC)cc3)c2c1	OVCAR-4 ovarian	38.7% (inactive)
C=C(C)[C@@H]1CC[C@]2(COC(=O)c3ccccc3C(=O)O)CC[C@]3(C)[C@H](CC[C@@H]4[C@@]5(C)CCCNC(C)(C)[C@@H]5CC[C@]43C)[C@@H]12	OVCAR-4 ovarian	57.3% (inactive)
CCc1c(C)c2ccc(OCC(=O)N=Nc3c(O)[nH]c4ccccc34)c(C)c2oc1=O	OVCAR-4 ovarian	-21.7% (active)
COc1cc(-c2nc3c(c(C)nc4c3nnn4-c3ccccc3)c(=O)o2)cc(OC)c1OC	OVCAR-4 ovarian	114% (inactive)
COc1cccc(Cn2cc3c(c2)-c2oncc2CC3)c1	OVCAR-4 ovarian	50.9% (inactive)
OCCN1CCCN(CCCN2c3ccccc3Sc3ccc(C(F)(F)F)cc32)CC1	OVCAR-4 ovarian	54.4% (inactive)
BrCCCOc1ccc(Oc2ccc(OCCCBr)cc2)cc1	OVCAR-4 ovarian	99% (inactive)
CCCCCN1CCN(C(CC(=O)c2ccccc2)C(=O)c2ccccc2)CC1 (stereo unspecified)	OVCAR-4 ovarian	107% (inactive)
Cn1c2ccccc2c2ccccc21	OVCAR-4 ovarian	105% (inactive)
COc1cc(/C=C/C(=O)c2ccc(F)cc2)ccc1OCCCCOc1cc2c(cc1OC)C(=O)N1CCCC1C=N2 (stereo unspecified)	OVCAR-4 ovarian	-11% (active)
COc1ccc(C(=O)c2no[n+]([O-])c2C(=O)c2ccc(OC)cc2)cc1	OVCAR-4 ovarian	-68.5% (active)
CCOC(=O)c1ccc2n1CCCc1cnc(NC(C)=O)nc1-2	OVCAR-4 ovarian	104% (inactive)
COc1ccc(-c2nc(SCC(C)C)nc(Nc3ccc(C(=O)O)cc3)c2C#N)cc1	OVCAR-4 ovarian	87.1% (inactive)
O=C(/C=C/c1cccc(O)c1)c1cccc(-n2cc(-c3ccc(Cl)cc3)[nH]c2=O)c1	OVCAR-4 ovarian	10.4% (inactive)
CCCCCCCCCCCCCCCCNC(=S)N/N=C/c1ccc(O)cc1O	OVCAR-4 ovarian	66.9% (inactive)
CCN(CC)CCOC(=O)c1cccnc1	OVCAR-4 ovarian	90.1% (inactive)
Cc1cc(CSc2ccc(Cl)cc2)ccc1N	OVCAR-4 ovarian	96.9% (inactive)
CC(C)OC(=O)[C@H](C)N[P@@](=O)(OC[C@@]1(C)O[C@@H](n2cc(F)c(N)nc2=O)C[C@@H]1O[P@](=O)(N[C@@H](C)C(=O)OC(C)C)Oc1ccccc1)Oc1ccccc1	OVCAR-4 ovarian	112% (inactive)
CCC(CCCN1C(=O)c2ccccc2C1=O)Nc1cc(OC)cc2cccnc12 (stereo unspecified)	OVCAR-4 ovarian	39.9% (inactive)
COc1ccc(C2C3(C#N)C(N)=NC(=C(C#N)C#N)C23C#N)cc1OC (stereo unspecified)	OVCAR-4 ovarian	110% (inactive)
CC(C)OC(=O)c1ccc2n1CCCc1cnc(Nc3ccccc3)nc1-2	OVCAR-4 ovarian	61.4% (inactive)
CCN(CC)CCNc1ncnc2c1cnn2-c1ccc(Cl)cc1	OVCAR-4 ovarian	90.6% (inactive)
CC#Cc1nc(Nc2cc(C)[nH]n2)c2ccccc2n1	OVCAR-4 ovarian	20% [100 µM] (inactive)
C=CC1CN2CCC1CC2C(O)c1ccnc2ccc(OC)cc12 (stereo unspecified)	OVCAR-4 ovarian	102% (inactive)
COc1ccc(Cn2cc3c(c2)-c2oncc2CC3)cc1OC	OVCAR-4 ovarian	43.4% (inactive)
COC(=O)CC(=O)C(=O)OC	OVCAR-4 ovarian	108% (inactive)
CCCCCSc1ccc2nc(NC(=O)OCCC)sc2c1	OVCAR-4 ovarian	35.1% (inactive)
COc1cc(/C=C/C(=O)/C=C(/C=C/c2ccc(OC(C)=O)c(OC)c2)OB(F)F)ccc1OC(C)=O	OVCAR-4 ovarian	69.6% (inactive)
CCOC(=O)c1c(C)oc2ncnc(Nc3ccc(NC(=O)Nc4ccc(CC)cc4)cc3)c12	OVCAR-4 ovarian	105% (inactive)
CC(=O)N(N=O)c1ccc([N+](=O)[O-])cc1Cl	OVCAR-4 ovarian	55.5% (inactive)
CN1C(=O)C(=Cc2coc3ccc(Br)cc3c2=O)C(=O)N(C)C1=O	OVCAR-4 ovarian	118% (inactive)
